Test: Mouse liver microsomal stability (DMPK)
Format: in vitro ADME
Settings: mouse, liver microsomes, pH 7.4, mouse liver microsomes; read-out: T 1/2 (MLM)
Procedure: To understand the intrinsic pharmacokinetics of synthetics and their stability in relation to human liver microsomal (HLM) and mouse liver microsomal (MLM), we performed the DMPK studies. The DMPK evaluation involves multiple reagents and instruments. The chemical and reagents include synthesized target molecules (at a concentration of 1–3 mg), DMSO (HPLC grade), PBS (pH = 7.4), NADPH, and liver microsomes (human and mouse) procured from Thermo. […]
Measured Quantity: half-life at 1 μM (h)

Solved entries (count: 3):
In [3]: df
Out[3]:
                           smiles_structure  measured_quantity  readout_value
0  CCOc1c(Cl)cc(-c2cc3c(Nc4ccc(C5CCN(C)CC5)c(F)c4)ncnn3c2)cc1OC  half-life at 1 μM            1.9
1  CN1CCC(c2ccc(Nc3ncnn4cc(-c5ccc(C(C)(C)C)cc5)cc34)cc2F)CC1  half-life at 1 μM          0.823
2  COc1cc(-c2cc3c(Nc4ccc(C5CCN(C)CC5)c(F)c4)ncnn3c2)cc(Cl)c1F  half-life at 1 μM           3.97

(A) CN1CCC(c2ccc(Nc3ncnn4cc(-c5cc(F)c(F)c(F)c5)cc34)cc2F)CC1
(B) CCOc1ccc(-c2cc3c(Nc4ccc(C5CCN(C)CC5)c(F)c4)ncnn3c2)cc1OC
[in] Return label of the item with the larger half-life at 1 μM. Candidates: A , B . Give the chosen item's label as your response.
[out] B
(B: 1.54 h, A: 0.972 h)

---

experiment: Human liver microsomal stability (DMPK); type: in vitro ADME; settings: human liver microsomes 0.5 mg/mL, 1 μM compound, NADPH, 30 min
Measured Quantity: % parent remaining (%)

                           smiles_structure  readout_value
0  CN1CCC(c2ccc(Nc3ncnn4cc(-c5ccc(C(C)(C)C)cc5)cc34)cc2F)CC1           65.7
1  CCOc1c(Cl)cc(-c2cc3c(Nc4ccc(C5CCN(C)CC5)c(F)c4)ncnn3c2)cc1OC           82.8
2  CCOc1ccc(-c2cc3c(Nc4ccc(C5CCN(C)CC5)c(F)c4)ncnn3c2)cc1OC           94.9
3  CN1CCC(c2ccc(Nc3ncnn4cc(-c5cc(F)c(F)c(F)c5)cc34)cc2F)CC1           71.7
4  COc1cc(-c2cc3c(Nc4ccc(C5CCN(C)CC5)c(F)c4)ncnn3c2)cc(Cl)c1F           75.8

---

assay: Mouse liver microsomal stability (DMPK); format: in vitro ADME; settings: mouse liver microsomes 0.5 mg/mL, 1 μM compound, NADPH, 30 min
Measured Quantity: % parent remaining (%)

                           smiles_structure   measured_quantity  readout_value
0  COc1cc(-c2cc3c(Nc4ccc(C5CCN(C)CC5)c(F)c4)ncnn3c2)cc(Cl)c1F  % parent remaining           91.7

(P) CN1CCC(c2ccc(Nc3ncnn4cc(-c5ccc(C(C)(C)C)cc5)cc34)cc2F)CC1
(Q) CCOc1c(Cl)cc(-c2cc3c(Nc4ccc(C5CCN(C)CC5)c(F)c4)ncnn3c2)cc1OC
[in] Please compare: P and Q . Report which one has the smaller % parent remaining value. Label of pick, please.
[out] P

---

test: Mouse liver microsomal stability (DMPK); format: in vitro ADME; details: pH 7.4; mouse liver microsomes; read-out: CLint (MLM)
Measured Quantity: microsomal CLint at 1 μM (µL/min/mg)

Worked cases, answers included:
In [3]: df
Out[3]:
                           smiles_structure  readout_units  readout_value
0  COc1cc(-c2cc3c(Nc4ccc(C5CCN(C)CC5)c(F)c4)ncnn3c2)cc(Cl)c1F      µL/min/mg              6
1  CCOc1ccc(-c2cc3c(Nc4ccc(C5CCN(C)CC5)c(F)c4)ncnn3c2)cc1OC      µL/min/mg             15
2  CCOc1c(Cl)cc(-c2cc3c(Nc4ccc(C5CCN(C)CC5)c(F)c4)ncnn3c2)cc1OC      µL/min/mg             12

(1) CN1CCC(c2ccc(Nc3ncnn4cc(-c5ccc(C(C)(C)C)cc5)cc34)cc2F)CC1
(2) CN1CCC(c2ccc(Nc3ncnn4cc(-c5cc(F)c(F)c(F)c5)cc34)cc2F)CC1
[in] Please tell me which of the two, 1 or 2 , has the higher reported microsomal CLint at 1 μM value. Mark your answer with the label of the selected entry.
[out] 1

---

tested on: MDA-MB-231 breast cancer cells; assay: Cell viability (resazurin) assay, MDA-MB-231; type: cell-based; conditions: Homo sapiens, MDA-MB-231 cells, read-out: IC50 values (mean ± SD) MDA-MB-231
Measured Quantity: IC50 (nM)

(A) CCOc1c(Cl)cc(-c2cc3c(Nc4ccc(C5CCN(C)CC5)c(F)c4)ncnn3c2)cc1OC
(B) CCOc1ccc(-c2cc3c(Nc4ccc(C5CCN(C)CC5)c(F)c4)ncnn3c2)cc1OC
(C) CN1CCC(c2ccc(Nc3ncnn4cc(-c5cc(F)c(F)c(F)c5)cc34)cc2F)CC1
[in] Order each entry by recorded IC50, climbing from the minimum. Answer format: the labels, ordered as requested.
[out] B, A, C

(I) COc1cc(-c2cc3c(Nc4ccc(C5CCN(C)CC5)c(F)c4)ncnn3c2)cc(Cl)c1F
(II) CN1CCC(c2ccc(Nc3ncnn4cc(-c5ccc(C(C)(C)C)cc5)cc34)cc2F)CC1
[in] Compare I and II by numeric IC50 and name the larger one. Refer to your chosen item by its label in the answer.
[out] II

---

assay: Human liver microsomal stability (DMPK); type: in vitro ADME; conditions: human, liver microsomes, pH 7.4, human liver microsomes; read-out: T 1/2 (HLM)
Measured Quantity: half-life at 1 μM (h)

Answered cases to consult:
>>> df
                           smiles_structure  measured_quantity  readout_value
0  CCOc1ccc(-c2cc3c(Nc4ccc(C5CCN(C)CC5)c(F)c4)ncnn3c2)cc1OC  half-life at 1 μM           6.61
1  CN1CCC(c2ccc(Nc3ncnn4cc(-c5cc(F)c(F)c(F)c5)cc34)cc2F)CC1  half-life at 1 μM           1.04
2  CCOc1c(Cl)cc(-c2cc3c(Nc4ccc(C5CCN(C)CC5)c(F)c4)ncnn3c2)cc1OC  half-life at 1 μM           1.83

(1) CN1CCC(c2ccc(Nc3ncnn4cc(-c5ccc(C(C)(C)C)cc5)cc34)cc2F)CC1
(2) COc1cc(-c2cc3c(Nc4ccc(C5CCN(C)CC5)c(F)c4)ncnn3c2)cc(Cl)c1F
[in] From the recorded data, which exceeds the other in half-life at 1 μM: 1 or 2 ? Your answer should be the label attached to the chosen record.
[out] 2

---

test system: MCF-7 breast cancer cells; assay: Cell viability (resazurin) assay, MCF-7; assay type: cell-based; details: MCF-7 cells, read-out: IC50 values (mean ± SD) MCF-7
Measured Quantity: pIC50
pIC50 field: float, defined as -log10 of concentration (mol/L).

[in] I'd like to know its pIC50. The compound in question is N.N.[Cl][Pt][Cl] [Cisplatin, cisplatin, reference compound]
[out] 5.31
